test: qHTS assay to identify small molecule antagonists of the retinoid acid receptor (RAR) signaling pathway - cell viability counter screen (AID 1159551); settings: C3RL4 cells viability, ATP luminescence (CellTiter-Glo), 6 h; series mostly up to 92.4 µM; further: nearly all actives have a fitted effect of over 35% in size
Records with an inconclusive call do not appear. Active and inactive are the calls of the source. The call rests on the fitted dose curve; in most records, active means well fitted cell-killing curve with a large enough effect in the repeat runs; inconclusive means weak or mixed curves, or effect the other way; inactive means flat fitted curve, though single readings scatter.
Output constraint: value belongs to 1 (active), -1 (inactive)

Q. Please state the recorded outcome for this compound: CCN(Cc1cccnc1)C(=O)c1cccc(Cl)c1[C@]1(C)C(=O)N(Cc2ccc(OC)cc2OC)c2ccc(Cl)cc21
A. -1

Q. Please state the recorded outcome for this compound: S=c1[nH]c2ccccc2s1
A. -1

Q. Please state the recorded outcome for this compound: O=Cc1cc(O)ccc1Br
A. -1

Q. Please state the recorded outcome for this compound: CC[C@H]1O[C@]2(CC[C@@H]1C)C[C@@H]1C[C@@H](C/C=C(\C)C[C@@H](C)/C=C/C=C3\CO[C@@H]4[C@H](O)C(C)=C[C@@H](C(=O)O1)[C@]34O)O2
A. 1

Q. Please state the recorded outcome for this compound: CCc1oc2ccccc2c1C(=O)c1cc(Br)c(O)c(Br)c1
A. -1

Q. Please state the recorded outcome for this compound: CCCCCCCC[P+](CCCCCCCC)(CCCCCCCC)CCCCCCCC
A. 1

Q. Please state the recorded outcome for this compound: C/C=C1/C(=O)C[C@H]2[C@@H]3CCC4=CC(=O)CC[C@]4(C)[C@H]3CC[C@]12C
A. -1

Q. Please state the recorded outcome for this compound: Fc1ccc([C@@H]2CCNC[C@H]2COc2ccc3c(c2)OCO3)cc1
A. -1

Q. Please state the recorded outcome for this compound: Cc1onc(-c2c(Cl)cccc2Cl)c1C(=O)N[C@@H]1C(=O)N2[C@@H]1SC(C)(C)[C@@H]2C(=O)O
A. -1

* * *

experiment: qHTS RealTime-Glo MT Cell Viability Assay in HEK293 cells - 16 hour (AID 1224872); conditions: RealTime-Glo luminescence; series mostly up to 76.8 µM; further: nearly all actives have a fitted effect of over 50% in size; further: potency means the concentration at half of the fitted maximal effect
Results filed as inconclusive are left out. Activity calls are given as the source filed them. The call rests on the fitted dose curve; in most records, active means well fitted cell-killing curve with a large enough effect in the repeat runs; inconclusive means weak or mixed curves, or effect the other way; inactive means flat fitted curve, though single readings scatter.
quantity.measured: Potency

structure.as.smiles | quantity.measured | value
COc1c(C)c2c(c(O)c1C/C=C(\C)CCC(=O)O)C(=O)OC2 | Potency | inactive
O=C1C=CC(=O)N1c1ccc(Cc2ccc(N3C(=O)C=CC3=O)cc2)cc1 | Potency | 17.4 µM (active)
OCCN1CCN(CC/C=C2/c3ccccc3Sc3ccc(C(F)(F)F)cc32)CC1 | Potency | 19 µM (active)
[O-][n+]1ccccc1SSc1cccc[n+]1[O-] | Potency | 1.31 µM (active)
O=C(N/N=C/c1ccccc1O)c1ccncc1 | Potency | inactive
Cc1cc(CCN2CCN(c3nsc4ccccc34)CC2)cc2c1NC(=O)CC2(C)C | Potency | 13.8 µM (active)
CCCN(CCC)c1c([N+](=O)[O-])cc(C(F)(F)F)c(N)c1[N+](=O)[O-] | Potency | 12.3 µM (active)
C[C@@H](NCCCc1cccc(C(F)(F)F)c1)c1cccc2ccccc12 | Potency | 23.9 µM (active)
CCc1cc(Cc2cc(CC)c(N)c(CC)c2)cc(CC)c1N | Potency | 24.5 µM (active)
CCCCN(CCCC)c1ccc(C(=O)c2ccccc2C(=O)O)c(O)c1 | Potency | inactive

Consider the additional compound presented here.
Q. Return the recorded Potency value; entry: CC(C)(C)NC(=O)[C@@H]1C[C@@H]2CCCC[C@@H]2CN1C[C@@H](O)[C@H](Cc1ccccc1)NC(=O)[C@H](CC(N)=O)NC(=O)c1ccc2ccccc2n1
A. 24.9 µM (active)

Where do these numbers come from? They come from PubChem BioAssay (Tox21).
